System: KRAS patient-derived spheroids with HUVEC/MSC, viability;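 note: spheroids exposed to agents for 7 days; 100% = DMSO vehicle control viability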
Experiment: Anticancer human tumor 323965-272-R-J2-PDC patient-derived pancreatic carcinoma cell line growth inhibition [KRAS2]
Settings: second compound 0.1 µM; first compound 0.000316 µM; hits give low values
assayEndpoint: viability, T/C (%)
Report as a plain number; the unit % is understood.

compound	testTarget	viability, T/C / %
Cn1ncnc1[C@H]1c2n[nH]c(=O)c3cc(F)cc(c23)N[C@@H]1c1ccc(F)cc1 + C=CC(=O)N1CCN(c2nc(OCC3CCCN3C)nc3c2CCN(c2cccc4cccc(C)c24)C3)CC1CC#N	KRAS patient-derived spheroids with HUVEC/MSC, viability	71.2
Cn1ncnc1[C@H]1c2n[nH]c(=O)c3cc(F)cc(c23)N[C@@H]1c1ccc(F)cc1 + COc1cc2nc(C)nc(NC(C)c3cc(N)cc(C(F)(F)F)c3)c2cc1OC1CCOC1	KRAS patient-derived spheroids with HUVEC/MSC, viability	85.1

Query string: Dear colleague, please send me the reported viability, T/C for CC(C)n1nc(-c2ccc3oc(N)nc3c2)c2c(N)ncnc21 + C=CC(=O)N1CCN(c2nc(OCC3CCCN3C)nc3c2CCN(c2cccc4cccc(C)c24)C3)CC1CC#N when you can.
Result string: 52

Query string: Dear colleague, please send me the reported viability, T/C for CC(=O)Nc1cccc(-n2c(=O)n(C3CC3)c(=O)c3c(Nc4ccc(I)cc4F)n(C)c(=O)c(C)c32)c1 + CC1OCC2(CCN(c3cnc(Sc4ccnc(N)c4Cl)c(N)n3)CC2)C1N when you can.
Result string: 72.3

Query string: Dear colleague, please send me the reported viability, T/C for CC(C)n1nc(-c2ccc3oc(N)nc3c2)c2c(N)ncnc21 + C=CC(=O)N1CCN(c2nc(=O)n(-c3c(C)ccnc3C(C)C)c3nc(-c4c(O)cccc4F)c(F)cc23)C(C)C1 when you can.
Result string: 53.7
